- Procedure Summary: recombinant barcode read abundance after kanamycin selection (control-corrected) (log10(CPM+1)); higher = more efficient recombination; sequences stand for … in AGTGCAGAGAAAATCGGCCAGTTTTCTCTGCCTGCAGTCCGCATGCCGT…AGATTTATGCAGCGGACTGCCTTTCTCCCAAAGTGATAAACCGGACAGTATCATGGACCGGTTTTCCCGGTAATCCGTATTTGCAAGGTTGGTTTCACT; site = the 11-nt target;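 also: IS621 recombinase and bridge RNA in Escherichia coli cells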
# cutoff 0.2 applies to recombinant barcode read abundance (log10); >= gives 1, < gives -1

>>> assigned_label("TCCTGAGCTTGGGTTCTAACCTGTTGCTG (site TCCTGAGCTCA)")
1
>>> assigned_label("TGAGTCCCTTGGGTTCTAACCTGTTGCTT (site TGAGTTCCTAA)")
-1
>>> assigned_label("GAGTGGCCTTGGGTTCTAACCTGTTGCCT (site GAGTGGCCTAC)")
-1
>>> assigned_label("AGCGACCCTTGGGTTCTAACCTGTTGCGT (site AGCGACCCTAC)")
1
>>> assigned_label("CATTATCCTTGGGTTCTAACCTGTTGCCT (site CAGTATCCTAG)")
-1
>>> assigned_label("CTAACTCCTTGGGTTCTAACCTGTTGCTG (site CTAACTCCTCA)")
-1
>>> assigned_label("GACCGTCCTTGGGTTCTAACCTGTTGCAT (site GACCGTCCTAC)")
1
>>> assigned_label("GGGGTTCCTTGGGTTCTAACCTGTTGCTT (site GGGGTTCCTAT)")
1
>>> assigned_label("CCGACTTCTTGGGTTCTAACCTGTTGCCT (site CGGACTTCTAG)")
1
>>> assigned_label("CCACTTCCTTGGGTTCTAACCTGTTGCCT (site CCACTACCTAG)")
1
>>> assigned_label("CCTAACACTTGGGTTCTAACCTGTTGCCT (site GCTAACACTAG)")
-1
>>> assigned_label("GCGAGCTCTTGGGTTCTAACCTGTTGCCT (site GCGAGCTCTAG)")
1
>>> assigned_label("CGTATGGCTTGGGTTCTAACCTGTTGCCT (site CGTATGGCTAG)")
1
>>> assigned_label("GTATACCCTTGGGTTCTAACCTGTTGCCA (site GTATACCCTAT)")
1
>>> assigned_label("AGCGCTACTTGGGTTCTAACCTGTTGCCT (site ACCGCTACTAG)")
-1
>>> assigned_label("GTCAAGACTTGGGTTCTAACCTGTTGCCA (site GTCAAGACTTG)")
1
>>> assigned_label("CCTTGCACTTGGGTTCTAACCTGTTGCGA (site CCTCGCACTTC)")
-1
>>> assigned_label("CTCCGGCCTTGGGTTCTAACCTGTTGCTT (site CTCCGACCTAA)")
1
>>> assigned_label("CGTGAACCTTGGGTTCTAACCTGTTGCGT (site CGTAAACCTAC)")
1
>>> assigned_label("AGAGCCTCTTGGGTTCTAACCTGTTGCTA (site TTCAGGGCTCT)")
-1
>>> assigned_label("CCTATAGCTTGGGTTCTAACCTGTTGCTT (site GAGTCTACTTG)")
-1
>>> assigned_label("CGGGGCACTTGGGTTCTAACCTGTTGCCT (site CTGGGCACTAG)")
-1
>>> assigned_label("CTCTGTCCTTGGGTTCTAACCTGTTGCTA (site CTCTGTCCTTA)")
1
>>> assigned_label("ACGTTGCCTTGGGTTCTAACCTGTTGCCT (site ACATTGCCTAG)")
-1
>>> assigned_label("AGCCTTGCTTGGGTTCTAACCTGTTGCCT (site AGCGTTGCTAG)")
1
>>> assigned_label("AGGATAGCTTGGGTTCTAACCTGTTGCTG (site AGAATAGCTCT)")
-1
>>> assigned_label("GCGAATCCTTGGGTTCTAACCTGTTGCCT (site GCGTATCCTAG)")
-1
>>> assigned_label("AGAAGCACTTGGGTTCTAACCTGTTGCCA (site AGAAGCACTTG)")
1
>>> assigned_label("AGCCTTGCTTGGGTTCTAACCTGTTGCCT (site AGCTTTGCTAG)")
-1
>>> assigned_label("CATCGGACTTGGGTTCTAACCTGTTGCGA (site AGGGCACCTCT)")
-1
>>> assigned_label("GATACGACTTGGGTTCTAACCTGTTGCCT (site GATACGCCTAG)")
1
>>> assigned_label("AAGATACCTTGGGTTCTAACCTGTTGCTG (site AAGATACCTAA)")
1
>>> assigned_label("AGGCGCCCTTGGGTTCTAACCTGTTGCAG (site AGGCGCCCTCT)")
1
>>> assigned_label("GTACGATCTTGGGTTCTAACCTGTTGCAA (site GTACGGTCTAT)")
1
>>> assigned_label("GTCCACCCTTGGGTTCTAACCTGTTGCAG (site GTCCACTCTGT)")
-1
>>> assigned_label("GCCGAGGCTTGGGTTCTAACCTGTTGCTG (site GCCGAGGCTCA)")
1
>>> assigned_label("GGTCGGGCTTGGGTTCTAACCTGTTGCCT (site GGTCGCGCTAG)")
1
>>> assigned_label("TTCTACTCTTGGGTTCTAACCTGTTGCCT (site CTCTACTCTAG)")
1
>>> assigned_label("CGCCGTCCTTGGGTTCTAACCTGTTGCAT (site CGCCCTCCTAT)")
-1
>>> assigned_label("GCCTCGCCTTGGGTTCTAACCTGTTGCAG (site GCCTCGCCTCT)")
1
>>> assigned_label("CCGGCCACTTGGGTTCTAACCTGTTGCCT (site CGGGCCACTAG)")
-1
